# studySystem: HLA-A*01:01
# methodSummary: IEDB peptide-MHC binding, purified MHC/direct/fluorescence; filed as Kd, often an IC50 or EC50 that approximates it; bounds were set here for any values at or beyond the usual limits of such assays
# testParameters: source organism: Yersinia pestis Nepal516
pKd: −log10 of the molar value.
measuredProperty: pKd

> print(dat)
   entrysequence  observedvalue
1      WLWVSSSDM         ≤ 4.70

* * *

# studySystem: HLA-B*83:01
# methodSummary: IEDB peptide-MHC binding, purified MHC/competitive/fluorescence; filed as Kd, often an IC50 or EC50 that approximates it; bounds were set here for any values at or beyond the usual limits of such assays
# testParameters: source organism: Salmonella enterica subsp. enterica serovar Paratyphi B str. SPB7
pKd: −log10 of the molar value.
measuredProperty: pKd

> print(dat)
   entrysequence  measuredproperty  observedvalue
1      YESSHWLVV               pKd         ≤ 5.30

* * *

# studySystem: HLA-A*02:03
# methodSummary: IEDB peptide-MHC binding, purified MHC/competitive/radioactivity; bounds were set here for any values at or beyond the usual limits of such assays
# testParameters: source organism: Hepatitis C virus (isolate H77)
measuredProperty: IC50 (nM)

> print(dat)
   entrysequence  measuredproperty  observedvalue
1     KLVGLGLNAV              IC50            8.2

* * *

# studySystem: HLA-B*08:01
# methodSummary: IEDB peptide-MHC binding, purified MHC/competitive/fluorescence; filed as Kd, often an IC50 or EC50 that approximates it; bounds were set here for any values at or beyond the usual limits of such assays
# testParameters: source organism: Salmonella enterica subsp. enterica serovar Typhi
pKd: −log10 of the molar value.
measuredProperty: pKd

> print(dat)
   entrysequence  observedvalue
1      SVIDHIHYM         ≤ 4.70

* * *

# studySystem: HLA-A*69:01
# methodSummary: IEDB peptide-MHC binding, purified MHC/competitive/fluorescence; filed as Kd, often an IC50 or EC50 that approximates it; bounds were set here for any values at or beyond the usual limits of such assays
# testParameters: source organism: Burkholderia pseudomallei K96243
pKd: −log10 of the molar value.
measuredProperty: pKd

> print(dat)
   entrysequence  observedvalue
1      SELTVSPPD         ≤ 4.70

* * *

# studySystem: HLA-B*18:01
# methodSummary: IEDB peptide-MHC binding, purified MHC/direct/fluorescence; filed as Kd, often an IC50 or EC50 that approximates it; bounds were set here for any values at or beyond the usual limits of such assays
# testParameters: source organism: Escherichia coli O157:H7
measuredProperty: Kd (µM)

> print(dat)
   entrysequence  studysystem  measuredproperty  relationsign  observedvalue
1      MLKLRQARL  HLA-B*18:01                Kd             ≥             20
2      HEVHAVWPG  HLA-B*18:01                Kd             =          0.193

* * *

# studySystem: HLA-A*68:02
# methodSummary: IEDB peptide-MHC binding, purified MHC/competitive/fluorescence; filed as Kd, often an IC50 or EC50 that approximates it; bounds were set here for any values at or beyond the usual limits of such assays
# testParameters: source organism: Plasmodium yoelii yoelii
pKd: −log10 of the molar value.
measuredProperty: pKd

> print(dat)
   entrysequence  studysystem  measuredproperty  observedvalue
1      KPPRGVLLY  HLA-A*68:02               pKd         ≤ 4.70

* * *

# studySystem: HLA-B*15:02
# methodSummary: IEDB peptide-MHC binding, purified MHC/competitive/fluorescence; filed as Kd, often an IC50 or EC50 that approximates it; bounds were set here for any values at or beyond the usual limits of such assays
# testParameters: source organism: Escherichia coli str. K-12 substr. MG1655
measuredProperty: Kd (nM)

> print(dat)
   entrysequence  observedvalue
1      SQMPTSLNF           23.8

* * *

# studySystem: HLA-B*15:01
# methodSummary: IEDB peptide-MHC binding, purified MHC/competitive/fluorescence; bounds were set here for any values at or beyond the usual limits of such assays
# testParameters: source organism: Vaccinia virus Copenhagen
pIC50: −log10 of the molar value.
measuredProperty: pIC50

> print(dat)
   entrysequence  studysystem  observedvalue
1      SQMTSTFIM  HLA-B*15:01           5.76

* * *

# studySystem: HLA-B*40:01
# methodSummary: IEDB peptide-MHC binding, purified MHC/competitive/radioactivity; filed as Kd, often an IC50 or EC50 that approximates it; bounds were set here for any values at or beyond the usual limits of such assays
# testParameters: source organism: Hepacivirus hominis
pKd: −log10 of the molar value.
measuredProperty: pKd

> print(dat)
   entrysequence  observedvalue
1     RPALVFDITK         ≤ 4.16

* * *

# studySystem: HLA-B*07:02
# methodSummary: IEDB peptide-MHC binding, purified MHC/competitive/fluorescence; bounds were set here for any values at or beyond the usual limits of such assays
# testParameters: source organism: Monodelphis domestica
measuredProperty: IC50

> print(dat)
   entrysequence  studysystem  observedvalue
1    YSLEYFQFVKK  HLA-B*07:02        ≥ 20 µM

* * *

# studySystem: HLA-A*02:02
# methodSummary: IEDB peptide-MHC binding, purified MHC/competitive/radioactivity; filed as Kd, often an IC50 or EC50 that approximates it; bounds were set here for any values at or beyond the usual limits of such assays
# testParameters: source organism: Vaccinia virus Copenhagen
pKd: −log10 of the molar value.
measuredProperty: pKd

> print(dat)
   entrysequence  observedvalue
1      YLRLYIILA           8.08

* * *

# studySystem: HLA-B*44:02
# methodSummary: IEDB peptide-MHC binding, purified MHC/competitive/radioactivity; filed as Kd, often an IC50 or EC50 that approximates it; bounds were set here for any values at or beyond the usual limits of such assays
# testParameters: source organism: Dengue virus 1 Brazil/97-11/1997
pKd: −log10 of the molar value.
measuredProperty: pKd

> print(dat)
   entrysequence  studysystem  measuredproperty  observedvalue
1     SEIQLTDYGA  HLA-B*44:02               pKd           6.83

* * *

# studySystem: HLA-A*23:01
# methodSummary: IEDB peptide-MHC binding, purified MHC/competitive/radioactivity; filed as Kd, often an IC50 or EC50 that approximates it; bounds were set here for any values at or beyond the usual limits of such assays
# testParameters: source organism: Dengue virus 3 Martinique/1243/1999
measuredProperty: Kd (µM)

> print(dat)
   entrysequence  studysystem  measuredproperty  observedvalue
1      WLGARYLEF  HLA-A*23:01                Kd         0.0827

* * *

# studySystem: HLA-A*02:06
# methodSummary: IEDB peptide-MHC binding, purified MHC/competitive/fluorescence; filed as Kd, often an IC50 or EC50 that approximates it; bounds were set here for any values at or beyond the usual limits of such assays
# testParameters: source organism: Campylobacter jejuni subsp. jejuni BH-01-0142
pKd: −log10 of the molar value.
measuredProperty: pKd

> print(dat)
   entrysequence  measuredproperty  observedvalue
1      VSIRGSHHK               pKd           5.29

* * *

# studySystem: HLA-A*03:01
# methodSummary: IEDB peptide-MHC binding, purified MHC/competitive/radioactivity; filed as Kd, often an IC50 or EC50 that approximates it; bounds were set here for any values at or beyond the usual limits of such assays
# testParameters: source organism: Dengue virus 3 Singapore/8120/1995
pKd: −log10 of the molar value.
measuredProperty: pKd

> print(dat)
   entrysequence  studysystem  measuredproperty  observedvalue
1      KALKINWYK  HLA-A*03:01               pKd           7.08

* * *

# studySystem: HLA-A*02:06
# methodSummary: IEDB peptide-MHC binding, purified MHC/competitive/radioactivity; filed as Kd, often an IC50 or EC50 that approximates it; bounds were set here for any values at or beyond the usual limits of such assays
# testParameters: source organism: Dengue virus 3 Martinique/1243/1999
measuredProperty: Kd (nM)

> print(dat)
   entrysequence  observedvalue
1      MTTEDMLTV           2.85
2      ALFSGVSWV           1.97
3     SAYTALFSGV           1.16

* * *

Each entry below carries its reported Kd.
# studySystem: HLA-A*02:01
# methodSummary: IEDB peptide-MHC binding, purified MHC/competitive/radioactivity; filed as Kd, often an IC50 or EC50 that approximates it; bounds were set here for any values at or beyond the usual limits of such assays
# testParameters: source organism: Homo sapiens
measuredProperty: Kd

> print(dat)
   entrysequence  studysystem  observedvalue
1      NMDPLNDNI  HLA-A*02:01        1930 nM
2      TTAEEAAGI  HLA-A*02:01        4170 nM
3      ELESQISEL  HLA-A*02:01     ≥ 78100 nM
4      SIRDGVRAY  HLA-A*02:01     ≥ 78100 nM
5     FIASKGVKLV  HLA-A*02:01          37 nM
6      SMPDFDLHL  HLA-A*02:01         5.2 nM
